B1: NET1 (parent)
chain: IKRTIRVLDVNNQSFREQEEPSNK

Variants of: B1
assay: protein stability index of a GFP-peptide fusion (GPS, HEK-293T) (PSI 1-6); higher = more stable;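 also: lentivirally expressed fusions sorted by FACS into six bins by GFP to DsRed ratio, PSI derived from sequencing read proportions per bin multiplied by bin number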
condition_summary: c terminus: a fixed tail appended
property: protein stability index

sequence_input=IKRTIRVLDVNNQSFREQEEPSNS property="protein stability index" result=4.07
sequence_input=IKRTIRVLDRNNQSFREQEEPSNK property="protein stability index" result=4.04
sequence_input=FKRTIRVLDVNNQSFREQEEPSNK property="protein stability index" result=4.03
